Listed compounds paired with reported pIC50
System: SK-MEL-28 (monolayer culture of a human melanoma)
protocolDetails: In vitro antitumor activity, SK-MEL-28 cell growth (Crystal Violet)
Assay type: cell-based
runConditions: SK-MEL-28 cells, three days of incubation at 37° C., Crystal Violet staining
Note on pIC50: it is the negative log10 of concentration, concentration in mol/L.

CO[C@H]1[C@@H](N(C)C)[C@H](O)C2OC1(C)n1c3ccccc3c3c4c(c5c6ccccc6n2c5c31)C(=O)NC4 (some centres unmarked) [IB-97224, 4′N-methyl-5′-hydroxystaurosporine]: 8.40

Let us examine a further case.
q: Give the observed pIC50 of CN[C@H]1[C@H](O)[C@@H]2O[C@](C)([C@H]1OC)n1c3ccccc3c3c4c(c5c6ccccc6n2c5c31)C(=O)NC4 [IB-97225, 5′-hydroxystaurosporine] for SK-MEL-28 (monolayer culture of a human melanoma).
a: 8.70

---

System: A-549 (monolayer culture of a human macrocytic lung carcinoma)
protocolDetails: In vitro antitumor activity, A-549 cell growth (Crystal Violet)
Assay type: cell-based
runConditions: A-549 cells, three days of incubation at 37° C., Crystal Violet staining
property: IC50 (nM)
Write the answer as a number in nM, unit excluded.

CO[C@H]1[C@@H](N(C)C)[C@H](O)C2OC1(C)n1c3ccccc3c3c4c(c5c6ccccc6n2c5c31)C(=O)NC4 (some centres unmarked) [IB-97224, 4′N-methyl-5′-hydroxystaurosporine]: 2

Let us examine a further case.
q: Find the measured IC50 of CN[C@H]1[C@H](O)[C@@H]2O[C@](C)([C@H]1OC)n1c3ccccc3c3c4c(c5c6ccccc6n2c5c31)C(=O)NC4 [IB-97225, 5′-hydroxystaurosporine] and report it.
a: 2
